Tested on: rodent lifetime carcinogenesis bioassay, tumor incidence TD50
test method notes: carcinogenic potency in animals, long-term in vivo studies, CPDB compilation (AID 1745844)
experimental parameters: rat; strain F344/DuCrj; males; inhaled; site: liver; lesion: hepatocellular adenoma; dosed 104 weeks; study length 104 weeks
measure: TD50 (mg/kg/day)
One number for each entry, in mg/kg/day.

The recorded TD50 for ClC(Cl)=C(Cl)Cl is 28300

----------
System: rodent lifetime carcinogenesis bioassay, tumor incidence TD50
test method notes: carcinogenic potency in animals, long-term in vivo studies, CPDB compilation (AID 1745844)
experimental parameters: mouse; strain B6C3F1; females; by gavage; site: liver; lesion: hepatocellular carcinoma; dosed 78 weeks; study length 91 weeks
measure: TD50

The recorded TD50 for ClC(Cl)C(Cl)Cl is 35.8 mg/kg/day

----------
Tested on: rodent lifetime carcinogenesis bioassay, tumor incidence TD50
test method notes: carcinogenic potency in animals, long-term in vivo studies, CPDB compilation (AID 1745844)
experimental parameters: hamster; strain Syrian Golden; males; by gavage; site: colon; lesion: adenocarcinoma; dosed 61 weeks; study length 106 weeks
measure: TD50
Returns: string containing the numeric result and its unit.

GET /values?item= CN(C)CCN(C)N=O &system= rodent lifetime carcinogenesis bioassay, tumor incidence TD50 returns TD50: 38.7 mg/kg/day

----------
System: rodent lifetime carcinogenesis bioassay, tumor incidence TD50
test method notes: carcinogenic potency in animals, long-term in vivo studies, CPDB compilation (AID 1745844)
experimental parameters: rat; strain Fischer 344; females; in feed; site: any site (literature study); lesion: several types; types named in the paper; dosed 103 weeks; study length 104 weeks
The source made the active and inactive calls. How the calls were made is not given here.
measure: TD50

Solved entries:
CNC[C@H](O)c1cccc(O)c1 | 272 mg/kg/day (inactive)
C[C@](N)(Cc1ccc(O)c(O)c1)C(=O)O | 592 mg/kg/day (inactive)
COC(=O)[C@H]1[C@H]2C[C@@H]3c4[nH]c5cc(OC)ccc5c4CCN3C[C@H]2C[C@@H](OC(=O)c2cc(OC)c(OC)c(OC)c2)[C@@H]1OC | 0.727 mg/kg/day (inactive)
Nc1ccc(/C=C/c2ccc(N)c(S(=O)(=O)O)c2)c(S(=O)(=O)O)c1 | 17600 mg/kg/day (inactive)
O=S(=O)(O)c1ccc(N=Nc2cc(S(=O)(=O)O)c3ccccc3c2O)c2ccccc12 | 7180 mg/kg/day

Would you kindly look at the next entry?
GET /values?item= Brc1c(Br)c(Br)c(Oc2c(Br)c(Br)c(Br)c(Br)c2Br)c(Br)c1Br &system= rodent lifetime carcinogenesis bioassay, tumor incidence TD50 returns TD50: 4380 mg/kg/day

----------
System: rodent lifetime carcinogenesis bioassay, tumor incidence TD50
test method notes: carcinogenic potency in animals, long-term in vivo studies, CPDB compilation (AID 1745844)
experimental parameters: rat; strain Sprague-Dawley; males; by gavage; site: any site (literature study); lesion: several types; types named in the paper; dosed 52 weeks; study length 84 weeks
Calls of active or inactive are those of the source. How the calls were made is not given here.
measure: TD50

The recorded TD50 for CC(C)CCC[C@@H](C)[C@H]1CC[C@H]2[C@@H]3CC=C4C[C@@H](OC(=O)Cc5ccc(N(CCCl)CCCl)cc5)CC[C@]4(C)[C@H]3CC[C@]12C is 0.481 mg/kg/day (inactive)

----------
Test system: rodent lifetime carcinogenesis bioassay, tumor incidence TD50
test method notes: carcinogenic potency in animals, long-term in vivo studies, CPDB compilation (AID 1745844)
experimental parameters: mouse; strain B6C3F1; females; i.p.; site: any site (literature study); lesion: several types; types named in the paper; dosed 47 weeks; study length 86 weeks
measure: TD50 (mg/kg/day)
Numbers only, in mg/kg/day.

GET /values?item= S=P(N1CC1)(N1CC1)N1CC1 &system= rodent lifetime carcinogenesis bioassay, tumor incidence TD50 returns TD50: 0.0855
